assay: Concentration required to inhibit the growth of human Melanoma UACC-62 cells; format: functional

| entry-smiles | censor-symbol | GI50 (µM) |
| --- | --- | --- |
| COc1cc2c(cc1OC)-c1ncc3cc4c(cc3c1C2)OCO4 | > | 100 |
| COc1cc2c(c(OC)c1OC)-c1ncc3cc4c(cc3c1C2)OCO4 | = | 19.3 |
| COc1cc2c(cc1OC)-c1ncc3cc(OC)c(OC)c(OC)c3c1C2 | = | 7.42 |
| COc1cc2c(cc1OC)-c1ncc3c(OC)c(OC)c(OC)cc3c1C2 | = | 3.84 |
| COc1cc2c(c(OC)c1OC)-c1ncc3cc(OC)c(OC)c(OC)c3c1C2 | = | 17.4 |
| COc1cc2cnc3c(c2cc1OC)Cc1cc2c(cc1-3)OCO2 | < | 0.01 |
| c1c2c(cc3c1OCO3)-c1ncc3cc4c(cc3c1C2)OCO4 | = | 0.19 |
| COc1ccc(OC)c2c3c(ncc12)-c1cc2c(cc1C3)OCO2 | > | 100 |
| COc1cc2c(c(OC)c1OC)-c1ncc3c(OC)c(OC)c(OC)cc3c1C2 | = | 21.1 |
| COc1cc2c3c(n(C)c(=O)c2cc1OC)-c1cc2c(cc1C3=O)OCO2 | = | 4.2 |
| COc1cc2c(cc1OC)-c1ncc3c(OC)ccc(OC)c3c1C2 | = | 18 |
| COc1cc2cnc3c(c2c(OC)c1OC)Cc1cc2c(cc1-3)OCO2 | = | 0.439 |
| COc1cc2c(cc1OC)-c1ncc3cc(OC)c(OC)cc3c1C2 | > | 50 |
